assay.remarks: Particle size testing by laser diffraction (Malvern MS2000 laser particle size analyzer, dispersant water)
Type: physicochemical
test.conditions: laser diffraction, dispersant water
Rule: Surface area-average particle size D[3,2] under 20 µm gives Condition not met, otherwise Condition met.

INSERT INTO assay_data (compound, class) VALUES
  ('CCCCCCOC(=O)c1ccccc1C(=O)c1ccc(N(CC)CC)cc1O [Example 2]', 'Condition not met'),
  ('CCCCCCOC(=O)c1ccccc1C(=O)c1ccc(N(CC)CC)cc1O [Example 1]', 'Condition not met'),
  ('CCCCCCOC(=O)c1ccccc1C(=O)c1ccc(N(CC)CC)cc1O [Example 5]', 'Condition met'),
  ('CCCCCCOC(=O)c1ccccc1C(=O)c1ccc(N(CC)CC)cc1O [Comparative Example 1]', 'Condition met');

Switching to the query record.
Problem: Textbook exercise: given the entry CCCCCCOC(=O)c1ccccc1C(=O)c1ccc(N(CC)CC)cc1O [Example 4] , state whether its Surface area-average particle size D[3,2] is greater than or equal to 20 µm.
Result: Condition met
